B1: RTN1 (parent)
chain: VVAYLALAALSATISFRIYKSVLQ

Variants of: B1
procedureDetails: protein stability index of a GFP-peptide fusion (GPS, HEK-293T) (PSI 1-6); higher = more stable;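 also: lentivirally expressed fusions sorted by FACS into six bins by GFP to DsRed ratio, PSI derived from sequencing read proportions per bin multiplied by bin number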
runConditions: c terminus: a fixed tail appended
measuredProperty: protein stability index
// no unit, no text: just the number

I18R :: 2.8
L5H :: 2.85
Y19E :: 4.55
A3K :: 1.08
V2H :: 4.06
S21W :: 2.52

Enquiry: May I ask what protein stability index has been recorded for T13G ?
Return: 1.32

Enquiry: Given the entry L10A , report its measured protein stability index.
Return: 2.38

Enquiry: Any idea what its protein stability index is? The variant is L23E
Return: 2.65

Enquiry: Fill blank: measured protein stability index of the variant A6D is ____.
Return: 3.37

Enquiry: Entry V1H : reported protein stability index = ?
Return: 1.68

Enquiry: Request the reported protein stability index associated with A8I
Return: 3.23

Enquiry: # query: protein stability index of entry I18Y
Return: 3.91

Enquiry: Record request: protein stability index value, item V2W
Return: 1.31

Enquiry: Name the reported protein stability index value associated with the variant S15H
Return: 3.38

Enquiry: Recorded protein stability index for V22Q , please?
Return: 2.7

Enquiry: Query (variant): T13P ; field requested: protein stability index
Return: 2.21

Enquiry: Consider the variant V2T and give its measured protein stability index.
Return: 3.88

Enquiry: Please give the measured protein stability index for this variant: K20S
Return: 2.68

Enquiry: Quick one: protein stability index of F16V ?
Return: 2.15

Enquiry: Look at this variant and give its reported protein stability index. S15G
Return: 2.29

Enquiry: Field request: protein stability index | item: S11P
Return: 2.49

Enquiry: # protein stability index lookup, item I18K
Return: 4.46

Enquiry: Find the recorded protein stability index belonging to A6V and report it.
Return: 3.12

Enquiry: Please report the recorded protein stability index for A6G .
Return: 4.25

Enquiry: Field request: protein stability index | item: T13W
Return: 2.05

Enquiry: What measured protein stability index goes with T13A ?
Return: 1.2

Enquiry: Looking for the measured protein stability index of L7V , can you help?
Return: 3.13
